assay: viability loss in pontine glioma line – cell-based, SU-DIPG-XXV, MIPE5.0, CellTiter-Glo, qHTS, dose response (AID 1347065); conditions: CellTiter-Glo ATP luminescence;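 also: cells exposed to compound for 48 hours before ATP readout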
Records with an inconclusive call do not appear. Calls of active or inactive are those of the source. The limit is not given here; nearly all actives have AC50 up to about 26 µM.

>  <Smiles structure>
O=C(NCc1ccccc1)c1csc(Nc2ccncn2)n1

>  <AC50>
16.6 µM (active)

$$$$
>  <Smiles structure>
CN(C)Cc1ccc(S(=O)(=O)n2ccc(/C=C/C(=O)NO)c2)cc1

>  <AC50>
6.61 µM (active)

$$$$
>  <Smiles structure>
Cc1cc(-c2ccc(CC(=O)Nc3ccc(-c4cccnc4)cc3)cc2)ccn1

>  <AC50>
inactive

$$$$
>  <Smiles structure>
CCOc1cc(C(=O)N2CCC(N3CCN(C)CC3)CC2)ccc1Nc1ncc2c(n1)N(C1CCCC1)c1ccccc1C(=O)N2C

>  <AC50>
20.9 µM (active)

$$$$
>  <Smiles structure>
Cc1c(-c2ccnn2C)cc(C(=O)NCc2ccc(S(C)(=O)=O)cn2)c(=O)n1-c1cccc(C(F)(F)F)c1

>  <AC50>
inactive

$$$$
>  <Smiles structure>
N#Cc1ccnc(Nc2cc(C3CCN(C4COC4)CC3)cc(N3CCC(F)(F)C3)n2)c1

>  <AC50>
1.48 µM (active)

$$$$
>  <Smiles structure>
C=C1/C(=C\C=C2/CCC[C@]3(C)[C@@H]([C@H](C)/C=C/[C@H](C)C(C)C)CC[C@@H]23)C[C@@H](O)C[C@@H]1O

>  <AC50>
18.6 µM (active)

$$$$
>  <Smiles structure>
Clc1cccc(-c2ccc(-c3nnc(CCCc4ccc5cccnc5n4)o3)cc2)c1

>  <AC50>
inactive

$$$$
>  <Smiles structure>
Cc1nc([C@](C)(O)CO)sc1-c1cnc(N)c(O[C@H](C)c2cc(F)ccc2-n2nccn2)c1

>  <AC50>
2.63 µM (active)

$$$$
>  <Smiles structure>
Cn1cnc2c(F)c(Nc3ccc(Br)cc3F)c(C(=O)NOCCO)cc21

>  <AC50>
5.25 µM (active)

$$$$

Where do these numbers come from? They come from PubChem BioAssay.
